Parameter: folding enthalpy. Scope: all listed entries.
Assay procedure: folding enthalpy; higher = less favourable; fluorescence melt of hairpins on a sequencing array, two-state fit
Experimental conditions: sodium 0.088 M
State just the number; it will be interpreted in kcal/mol.

Illustrative cases are given below, each with its answer.
INSERT INTO results (seq_string, value_units, measured_number) VALUES
  ('GAGGACGAAAGTCTCCTC ((((((....)))..)))', 'kcal/mol', -14.9),
  ('GTTAACACGAAAGTGAAC (((..(((....))))))', 'kcal/mol', -9.64),
  ('GATCTTGTAGAAGATC ((((((....))))))', 'kcal/mol', -27.5),
  ('GTTTGCGGAAACGTAAGC (.((.((....)).)).)', 'kcal/mol', -22),
  ('GCGTGGTGACGC ((((....))))', 'kcal/mol', -17.3);

# evaluate next
folding enthalpy reading for GCGTAACACGC ((((...)))) : -20.9
